Measured IC50 by item
Molecular target: TRPC5 (Homo sapiens, UniProt Q9UL62)
Construct: expressed in transfected cells; host or cells: HEK 293
Assay: TRPC5 fluorescence assay, membrane potential dye, flexstation (FLEX)
Format: cell-based
Settings: Table 6; HEK293 cells overexpressing TRPC5

- compound: "O=c1[nH]ncc(N2CCc3c(cnn3Cc3ccc(F)cc3C(F)(F)F)C2)c1Cl [drawing 864]"
  IC50: "0.01 to 1000 nM"
- compound: "O=c1[nH]ncc(N2CCc3ncn(Cc4cnccc4C(F)(F)F)c3C2)c1Cl"
  IC50: "10000 to 500000 nM"
- compound: "CC(c1ccccc1C(F)(F)F)n1nnc2c1CCN(c1cn[nH]c(=O)c1C#N)C2 (stereo not shown)"
  IC50: "5000 to 10000 nM"
- compound: "O=c1[nH]ncc(N2CCc3c(cnn3-c3ccccc3OC(F)(F)F)C2)c1Cl"
  IC50: "0.01 to 1000 nM"
- compound: "O=c1[nH]ncc(N2CCc3c(cnn3Cc3ccccc3C(F)(F)F)C2)c1Cl"
  IC50: "0.01 to 1000 nM"
- compound: "O=c1[nH]ncc(N2CCc3c(ncn3-c3ccccc3C(F)(F)F)C2)c1Cl [drawing 871]"
  IC50: "0.01 to 1000 nM"
- compound: "O=c1[nH]ncc(N2CCc3c(ncn3Cc3ncccc3C(F)(F)F)C2)c1Cl"
  IC50: "0.01 to 1000 nM"
- compound: "CCc1ncccc1Cn1nnc2c1CCN(c1cn[nH]c(=O)c1Cl)C2"
  IC50: "0.01 to 1000 nM"

Value of IC50 reported for the compound Cc1nc2c(n1Cc1ccccc1C(F)(F)F)CCN(c1cn[nH]c(=O)c1Cl)C2 is 0.01 to 1000 nM

Value of IC50 reported for the compound CCc1ncccc1Cn1nnc2c1CCN(c1cn[nH]c(=O)c1C#N)C2 [drawing 895] is 10000 to 500000 nM

====

Molecular target: TRPC5 (Homo sapiens)
Construct: expressed in transfected cells; host or cells: HEK 293
Sequence (Q9UL62 1-973): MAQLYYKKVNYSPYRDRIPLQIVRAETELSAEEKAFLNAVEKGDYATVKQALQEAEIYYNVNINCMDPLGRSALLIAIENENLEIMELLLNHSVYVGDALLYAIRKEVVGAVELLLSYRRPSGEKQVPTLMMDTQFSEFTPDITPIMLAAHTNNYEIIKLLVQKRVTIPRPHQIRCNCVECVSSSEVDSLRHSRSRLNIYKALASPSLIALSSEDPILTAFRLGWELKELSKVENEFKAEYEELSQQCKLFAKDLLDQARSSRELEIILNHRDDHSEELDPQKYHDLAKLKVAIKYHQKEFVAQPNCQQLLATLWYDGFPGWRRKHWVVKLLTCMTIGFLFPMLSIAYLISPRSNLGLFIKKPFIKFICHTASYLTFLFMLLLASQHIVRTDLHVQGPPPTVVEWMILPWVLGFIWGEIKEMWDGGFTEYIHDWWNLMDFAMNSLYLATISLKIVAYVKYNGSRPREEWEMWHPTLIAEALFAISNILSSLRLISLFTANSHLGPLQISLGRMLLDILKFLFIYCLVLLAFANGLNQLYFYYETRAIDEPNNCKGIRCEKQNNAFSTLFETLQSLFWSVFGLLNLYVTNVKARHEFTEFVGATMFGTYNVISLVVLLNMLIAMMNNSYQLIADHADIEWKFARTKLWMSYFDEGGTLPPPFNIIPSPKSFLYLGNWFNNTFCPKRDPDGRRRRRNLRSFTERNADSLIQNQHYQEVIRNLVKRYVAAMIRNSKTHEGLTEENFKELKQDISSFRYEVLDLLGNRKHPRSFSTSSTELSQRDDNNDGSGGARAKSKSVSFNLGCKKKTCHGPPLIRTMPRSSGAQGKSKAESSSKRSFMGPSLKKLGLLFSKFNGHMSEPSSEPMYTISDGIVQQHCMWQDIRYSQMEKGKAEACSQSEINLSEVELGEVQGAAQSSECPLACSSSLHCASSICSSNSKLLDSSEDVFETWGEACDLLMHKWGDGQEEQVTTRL
Assay: TRPC5 Fluorescence Assay - FLIPR format (HEK-TREx hTRPC5, Riluzole stimulation)
Format: cell-based
Conditions: Table 10, read-out: TRPCS-FLIPR IC50
measurement.kind: IC50

Observe how each entry below is paired with its result.
- molecule: "CS(=O)(=O)c1nn(Cc2ccc(F)cc2C(F)(F)F)c2c1CN(c1cn[nH]c(=O)c1Cl)CC2"
  measurement.kind: "IC50"
  experimental.result: "0.01 to 1000 nM"
- molecule: "C[C@@H]1Cc2c(c(C(N)=O)nn2Cc2ccccc2C(F)(F)F)CN1c1cn[nH]c(=O)c1Cl [drawing 1118]"
  measurement.kind: "IC50"
  experimental.result: "0.01 to 1000 nM"
- molecule: "N[C@H](c1nn(Cc2ccccc2C(F)(F)F)c2c1CN(c1cn[nH]c(=O)c1Cl)CC2)C(F)(F)F"
  measurement.kind: "IC50"
  experimental.result: "1000 to 5000 nM"
- molecule: "COCc1ncccc1Cn1cnc2c1CCN(c1cn[nH]c(=O)c1Cl)C2 [drawing 1065]"
  measurement.kind: "IC50"
  experimental.result: "0.01 to 1000 nM"
- molecule: "Cn1c(=O)c2c(n1Cc1ccccc1C(F)(F)F)CCN(c1cn[nH]c(=O)c1Cl)C2"
  measurement.kind: "IC50"
  experimental.result: "1000 to 5000 nM"

Assay TRPC5 (Homo sapiens), sample CC(c1ccc(F)cc1C(F)F)n1nc(C(N)=O)c2c1CCN(c1cn[nH]c(=O)c1Cl)C2 (stereo not shown) [drawing 1114] , IC50 read: 0.01 to 1000 nM

Assay TRPC5 (Homo sapiens), sample C[C@@H](c1ccccc1C(F)(F)F)n1nc(C(N)=O)c2c1CCN(c1cn[nH]c(=O)c1Cl)C2 , IC50 read: 0.01 to 1000 nM

Assay TRPC5 (Homo sapiens), sample CNC(=O)c1nn(Cc2ccccc2C(F)F)c2c1CN(c1cn[nH]c(=O)c1Cl)CC2 , IC50 read: 0.01 to 1000 nM

Assay TRPC5 (Homo sapiens), sample O=c1[nH]ncc(N2CCc3c(ncn3Cc3cccnc3[C@H](O)C(F)(F)F)C2)c1Cl , IC50 read: 0.01 to 1000 nM

====

Measured IC50 by item
Target: TRPC5 (Homo sapiens, UniProt Q9UL62)
Construct: expressed in transfected cells; host or cells: HEK 293
Test: TRPC5 automated patch clamp assay (Qpatch), current block after rosiglitazone stimulation
Assay type: cell-based
Details: Table 3; HEK293 cells overexpressing TRPC5; rosiglitazone stimulation; 100 mV; read-out: TRPC5_QP_ XC50_100

- compound: "O=C1CN(c2cn[nH]c(=O)c2Cl)CCN1Cc1ccc(F)cc1F [drawing 686]"
  IC50: "1 to 5 µM"
- compound: "O=C1CN(c2cn[nH]c(=O)c2Cl)CCN1Cc1ccccc1C(F)(F)F"
  IC50: "1e-05 to 1 µM"
- compound: "O=c1[nH]ncc(N2CCCN(Cc3ccccc3)CC2)c1Br"
  IC50: "10 to 500 µM"

Value of IC50 reported for the compound Cc1ccccc1CN1CCN(c2cn[nH]c(=O)c2-c2ccccc2)CC1 is 5 to 10 µM

Value of IC50 reported for the compound Cc1ccccc1C(C)N1CCN(c2cn[nH]c(=O)c2Br)CC1 (stereo not shown) is 1 to 5 µM

Value of IC50 reported for the compound O=c1[nH]ncc(N2CCN(Cc3ccccc3OC(F)(F)F)CC2)c1Cl is 1 to 5 µM

Value of IC50 reported for the compound COc1c(N2CCN(Cc3ccccc3C)C(=O)C2)cn[nH]c1=O is 10 to 500 µM

Value of IC50 reported for the compound O=c1[nH]ncc(N2CCN(Cc3ccc(F)cc3F)CC2)c1Cl is 5 to 10 µM

====

Target: TRPC5 (Homo sapiens)
Construct: expressed in transfected cells; host or cells: HEK 293
Sequence (Q9UL62 1-973): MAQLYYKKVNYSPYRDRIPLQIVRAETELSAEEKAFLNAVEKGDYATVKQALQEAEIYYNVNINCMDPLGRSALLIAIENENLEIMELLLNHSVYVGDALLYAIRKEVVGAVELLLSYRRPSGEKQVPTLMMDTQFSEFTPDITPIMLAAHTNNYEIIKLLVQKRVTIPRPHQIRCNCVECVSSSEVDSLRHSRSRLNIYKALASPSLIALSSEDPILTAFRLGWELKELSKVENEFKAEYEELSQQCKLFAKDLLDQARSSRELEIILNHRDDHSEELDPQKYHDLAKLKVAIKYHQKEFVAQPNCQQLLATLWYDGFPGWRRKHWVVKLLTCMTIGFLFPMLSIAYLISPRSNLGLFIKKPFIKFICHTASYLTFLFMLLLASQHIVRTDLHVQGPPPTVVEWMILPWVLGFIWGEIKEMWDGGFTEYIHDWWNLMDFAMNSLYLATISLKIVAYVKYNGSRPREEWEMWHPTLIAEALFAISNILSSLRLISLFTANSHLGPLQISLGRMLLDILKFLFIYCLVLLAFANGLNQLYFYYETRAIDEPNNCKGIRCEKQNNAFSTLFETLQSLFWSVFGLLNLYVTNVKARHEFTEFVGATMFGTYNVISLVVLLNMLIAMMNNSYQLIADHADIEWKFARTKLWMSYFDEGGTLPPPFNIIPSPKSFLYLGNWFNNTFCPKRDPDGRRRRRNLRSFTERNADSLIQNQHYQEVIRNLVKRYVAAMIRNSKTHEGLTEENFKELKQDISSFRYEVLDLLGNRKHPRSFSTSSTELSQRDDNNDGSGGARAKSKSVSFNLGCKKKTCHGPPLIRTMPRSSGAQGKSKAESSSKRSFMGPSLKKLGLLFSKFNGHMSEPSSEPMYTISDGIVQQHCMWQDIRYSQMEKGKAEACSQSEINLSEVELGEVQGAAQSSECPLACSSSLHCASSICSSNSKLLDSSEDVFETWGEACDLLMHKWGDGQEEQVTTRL
Assay: TRPC5 automated patch clamp assay (Qpatch), current block after rosiglitazone stimulation
Type: cell-based
Conditions: Table 4; HEK293 cells overexpressing TRPC5; rosiglitazone stimulation; 100 mV; read-out: TRPC5_QP_ XC50_100
Description: HEK 293 cells expressing human TRPC5 were harvested, re-suspended in serum free medium, and added to the automated platform and used within 2-3 hours. Internal and external physiological solutions were freshly prepared prior to the assay. […] The automated electrophysiological platform QPatch 16 from Sophion (Denmark) was used to carry out the compounds profiling. The series resistance and quality of seals were continuously monitored during the experiments. […]
measurement.kind: IC50

Observe how each entry below is paired with its result.
- compound: "CCCc1c(N2CCN(Cc3ccccc3C)C(=O)C2)cn[nH]c1=O"
  IC50: "10 to 500 µM"
- compound: "Cc1cc(F)ccc1CN1CCN(c2c(Cl)c(C)n[nH]c2=O)CC1=O"
  IC50: "10 to 500 µM"
- compound: "Cc1ccccc1CN1CCN(c2cn[nH]c(=O)c2Cl)C(C)C1 (centres unmarked)"
  IC50: "1 to 5 µM"
- compound: "Cc1cc(F)ccc1CN1CCN(c2cn[nH]c(=O)c2Cl)C(C)C1 (centres unmarked)"
  IC50: "1 to 5 µM"
- compound: "Cc1cc(Cl)ccc1CN1CCN(c2cn[nH]c(=O)c2Cl)CC1=O [drawing 737]"
  IC50: "1 to 5 µM"
- compound: "O=C1CN(c2c(Cl)c(Br)n[nH]c2=O)CCN1Cc1ccccc1OC(F)(F)F"
  IC50: "10 to 500 µM"

Value of IC50 reported for the compound O=C1CN(c2cn[nH]c(=O)c2Cl)CCN1Cc1cccc2ccccc12 is 1e-05 to 1 µM

Value of IC50 reported for the compound O=c1[nH]ncc(Cl)c1N1CCN(Cc2ccccc2C(F)(F)F)CC1 is 5 to 10 µM
